Test system: Ruminococcus gnavus DSM 108212
EXPERIMENTAL DETAILS: fold change of 2-Phenylethylamine concentration vs plate DMSO controls (fold change (ratio)); higher = more amine produced, active = hit call of the paper (significant change in both replicates, either direction)
PROTOCOL CONDITIONS: incubation time: 27 h, anaerobic, 37 °C
Where a name gives a salt, the structure may show the parent alone.
Outcome: class 1 for fold change of 2-Phenylethylamine concentration of at least 1; class 0 for anything lower.

MOLECULE	SYSTEM UNDER TEST	DISCRETE LABEL
CN(C)CCC(c1ccc(Br)cc1)c1ccccn1 (stereo unspecified) [Brompheniramine maleate] (20 µM)	Ruminococcus gnavus DSM 108212	class 1
CCCCOCCOCCOCc1cc2c(cc1CCC)OCO2 (20 µM)	Ruminococcus gnavus DSM 108212	class 1
CC(=O)OC(C)C[N+](C)(C)C (stereo unspecified) [Methacholine chloride] (20 µM)	Ruminococcus gnavus DSM 108212	class 1
Cc1onc(-c2c(F)cccc2Cl)c1C(=O)N[C@@H]1C(=O)N2[C@@H]1SC(C)(C)[C@@H]2C(=O)O [Flucloxacillin sodium] (20 µM)	Ruminococcus gnavus DSM 108212	class 0
Cc1c(C)c2c(c(C)c1O)CCC(C)(C(=O)O)O2 (stereo unspecified) [Trolox] (20 µM)	Ruminococcus gnavus DSM 108212	class 1
S=c1[nH]cnc2nc[nH]c12 [Mercaptopurine] (20 µM)	Ruminococcus gnavus DSM 108212	class 0
CN(C)c1ccc(O)c2c1C[C@H]1C[C@H]3[C@H](N(C)C)C(=O)C(C(N)=O)=C(O)[C@@]3(O)C(=O)C1=C2O [Minocycline hydrochloride] (20 µM)	Ruminococcus gnavus DSM 108212	class 0
Cc1c(C)c2c(c(C)c1O)CCC(C)(COc1ccc(CC3SC(=O)NC3=O)cc1)O2 (stereo unspecified) [Troglitazone] (20 µM)	Ruminococcus gnavus DSM 108212	class 0
CN(C)CCN(Cc1ccc(Cl)cc1)c1ccccn1 [Chloropyramine hydrochloride] (20 µM)	Ruminococcus gnavus DSM 108212	class 1
C#C[C@]1(OC(C)=O)CC[C@H]2[C@@H]3CCC4=CC(=NO)CC[C@@H]4[C@H]3CC[C@@]21CC (mixture of isomers) [Norgestimate] (20 µM)	Ruminococcus gnavus DSM 108212	class 0
C#CCN[C@@H]1CCc2ccccc21 [Rasagiline] (20 µM)	Ruminococcus gnavus DSM 108212	class 1
